- Subject of test: human AR (Homo sapiens, UniProt P10275)
- Sequence (P10275 whole entry): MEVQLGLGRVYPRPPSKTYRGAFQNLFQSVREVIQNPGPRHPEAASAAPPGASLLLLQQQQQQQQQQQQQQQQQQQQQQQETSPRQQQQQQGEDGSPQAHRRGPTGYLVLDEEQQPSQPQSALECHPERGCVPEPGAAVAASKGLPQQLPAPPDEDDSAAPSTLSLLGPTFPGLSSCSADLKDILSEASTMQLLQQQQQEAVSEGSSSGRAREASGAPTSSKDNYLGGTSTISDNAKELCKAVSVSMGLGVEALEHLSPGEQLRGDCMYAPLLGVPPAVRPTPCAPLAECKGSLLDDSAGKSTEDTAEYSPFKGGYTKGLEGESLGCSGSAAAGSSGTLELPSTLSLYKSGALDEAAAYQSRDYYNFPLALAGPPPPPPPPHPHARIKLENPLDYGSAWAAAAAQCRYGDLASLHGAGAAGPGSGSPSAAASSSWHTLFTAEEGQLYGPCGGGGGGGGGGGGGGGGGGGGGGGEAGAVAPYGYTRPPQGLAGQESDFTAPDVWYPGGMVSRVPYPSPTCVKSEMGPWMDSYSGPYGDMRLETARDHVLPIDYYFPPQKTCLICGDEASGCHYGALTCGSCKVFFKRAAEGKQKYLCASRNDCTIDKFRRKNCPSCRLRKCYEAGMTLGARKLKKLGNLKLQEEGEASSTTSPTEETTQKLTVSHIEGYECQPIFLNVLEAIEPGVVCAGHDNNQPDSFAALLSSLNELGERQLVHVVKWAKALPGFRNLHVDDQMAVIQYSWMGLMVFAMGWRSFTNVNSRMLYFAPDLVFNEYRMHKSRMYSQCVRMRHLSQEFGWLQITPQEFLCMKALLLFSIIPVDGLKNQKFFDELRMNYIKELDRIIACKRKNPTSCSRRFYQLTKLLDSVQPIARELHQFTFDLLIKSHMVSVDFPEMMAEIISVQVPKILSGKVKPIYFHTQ
- Experimental details: Co-transfection assay, AR antagonist, CV-1 cells (in presence of DHT)
- Format: cell-based
- Applied conditions: read-out: AR Antagonist CV-1 Cells Potency
- Description: The reporter plasmid, MTV-LUC, contains the cDNA for firefly luciferase (LUC) under control of themouse mammary tumor virus (MTV) long terminal repeat, a conditional promoter containing an androgen response element. See e.g., Berger et al. supra. […] After 40 hours, the cells were washed with PBS, lysed with a Triton X-100-based buffer and assayed for LUC and β-Gal activities using a luminometer or spectrophotometer, respectively. For each replicate, the normalized response (NR) was calculated as: […]
Readout label: pIC50
Numbers only, as −log10 of the molar value.

# query: pIC50 of entry Cc1ccc(C(=O)N2c3cc4c(cc3C(C(F)(F)F)=CC2C#N)CCC(C)(C)N4)cc1 (racemic) 6.83

---

- Subject of test: human AR (Homo sapiens, UniProt P10275)
- Experimental details: Co-transfection assay, AR antagonist, CV-1 cells (in presence of DHT)
- Type: cell-based
- Applied conditions: CV-1 cells; percent maximal inhibition, DHT at EC50
Readout label: AR Antagonist CV-1 Cells Efficacy (%)
Include the unit after the number when you answer.

{"columns": ["Compound", "AR Antagonist CV-1 Cells Efficacy (%)"],
 "data": [
  ["CCC1CCNc2cc3nc(Br)cc(C(F)(F)F)c3cc21 (racemic)", "8 ± 12%"],
  ["CCC1CCNc2cc3nc(SC)cc(C(F)(F)F)c3cc21 (racemic)", "60 ± 7%"],
  ["CC1(C)CCc2cc3c(cc2N1)N(C(=O)c1ccccc1)C(C#N)C=C3C(F)(F)F (racemic)", "91%"],
  ["Cc1c2c(cc3c(C(F)(F)F)c(F)c(Cl)nc13)C(C)CC(C)(C)N2 (centres unmarked)", "77 ± 6%"],
  ["C[S+]([O-])c1nc2cc3c(cc2c(C(F)(F)F)c1F)CCC(C)(C)N3 (racemic)", "84%"]
]}

Hi, could you look up AR Antagonist CV-1 Cells Efficacy (%) for each item in my list?
1. CCC1CCNc2cc3nc(F)cc(C(F)(F)F)c3cc21 (racemic)
2. CCC1CCNc2cc3nc([S+](C)[O-])cc(C(F)(F)F)c3cc21 (racemic)
3. CC1(C)CCc2cc3c(C(F)(F)F)c(F)c(F)nc3cc2N1

0%
59%
37%

---

- Subject of test: human AR (Homo sapiens)
- Experimental details: Co-transfection assay, AR antagonist, CV-1 cells (in presence of DHT)
- Format: cell-based
- Applied conditions: CV-1 cells; percent maximal inhibition, DHT at EC50
Readout label: AR Antagonist CV-1 Cells Efficacy (%)
Answers are plain numbers, in %.

Worked set:
{"columns": ["Compound", "AR Antagonist CV-1 Cells Efficacy (%)"],
 "data": [
  ["CCC1CCNc2cc3nc(Cl)cc(C(F)(F)F)c3cc21 (racemic) [Compound 108]", 28],
  ["Cc1ccc(C(=O)N2c3cc4c(cc3C(C(F)(F)F)=CC2C#N)CCC(C)(C)N4)cc1 (racemic) [Compound 132]", 89],
  ["CC1(C)CCc2cc3c(C(F)(F)F)c(F)c(Br)nc3cc2N1 [Compound 119]", 73]
]}

Kindly review the next compound as well.
# query: AR Antagonist CV-1 Cells Efficacy (%) of entry CCC1CCN(C)c2cc3nc(C#N)cc(C(F)(F)F)c3cc21 (racemic) [Compound 130] 89
